Test system: Cytomegalovirus
Experiment: Antiviral activity against Cytomegalovirus AD169 in human embryonic lung cells
Assay type: functional, organism-based
Details: Human betaherpesvirus 5, AD169, lung

Compound: N#C/C(Cl)=C\[C@H]1O[C@@H](n2cnc3c(N)ncnc32)[C@H](O)[C@@H]1O
Inequality Symbol: >
EC50 (µg/mL): 20
//
Compound: N#C/C=C/[C@H]1O[C@@H](n2cnc3c(N)ncnc32)[C@H](O)[C@@H]1O
Inequality Symbol: >
EC50 (µg/mL): 20
//
Compound: Nc1ccn(C[C@@H](CO)OCP(=O)(O)O)c(=O)n1.O.O [CIDOFOVIR]
Inequality Symbol: =
EC50 (µg/mL): 0.49
//
Compound: Nc1nc2c(ncn2COC(CO)CO)c(=O)[nH]1 [GANCICLOVIR]
Inequality Symbol: =
EC50 (µg/mL): 3.2
//
Compound: N#C/C=C\[C@H]1O[C@@H](n2cnc3c(N)ncnc32)[C@H](O)[C@@H]1O
Inequality Symbol: >
EC50 (µg/mL): 20
